Species: Rattus norvegicus
protocol: Toxicity (Ames Salmonella Test) in the presence of rat liver S-9 fraction in TA-100 strain (4*10e6 dilution)
Type: organism-based
Parameter: Toxicity. Scope: all listed entries.

[
  {
    "molecule": "CC(C)/[N+]([O-])=C/C(O)COc1cccc2ccccc12 (centres undefined)",
    "Toxicity": 232
  },
  {
    "molecule": "CC(C)NO [ISOPROPYLHYDROXYLAMINE]",
    "Toxicity": 230
  },
  {
    "molecule": "CC(C)N(O)CC(O)COc1cccc2ccccc12.O=C(O)C(=O)O (centres undefined)",
    "Toxicity": 165
  },
  {
    "molecule": "CC(C)N(CC(O)COc1cccc2ccccc12)N=O (centres undefined)",
    "Toxicity": 255
  }
]
